- Test system: MDA-MB-231
- experimental-protocol: Cytotoxicity against human MDA-MB-231 cells
- Format: functional
measured-quantity: LC50 (µM)

- structure-smiles: "COc1cc(/C=C/c2cc(O)c3c(CC=C(C)C)c[nH]c3c2)cc2c1O[C@]1(C)CC[C@@H](O)C(C)(C)[C@H]1C2"
  unit: "µM"
  qualifying-sign: "="
  recorded-measurement: 50.1
- structure-smiles: "COc1cc(/C=C/c2cc(OC)c3ccn(C)c3c2)cc2c1O[C@]1(C)CC[C@@H](O)C(C)(C)[C@H]1C2"
  unit: "µM"
  qualifying-sign: ">"
  recorded-measurement: 100
- structure-smiles: "COc1cc(/C=C/c2cc(O)c3c(C/C=C(\\C)CCC=C(C)C)c[nH]c3c2)cc2c1O[C@]1(C)CC[C@@H](O)C(C)(C)[C@H]1C2"
  unit: "µM"
  qualifying-sign: "="
  recorded-measurement: 85.1
- structure-smiles: "COc1cc(/C=C/c2cc(O)c3c(c2)C[C@@H]2C(C)(C)[C@H](O)CC[C@@]2(C)O3)cc2c1ccn2C"
  unit: "µM"
  qualifying-sign: "="
  recorded-measurement: 51.3
- structure-smiles: "COc1cc(/C=C/c2cc(O)c3cc(CC=C(C)C)[nH]c3c2)cc2c1O[C@]1(C)CC[C@@H](O)C(C)(C)[C@H]1C2"
  unit: "µM"
  qualifying-sign: ">"
  recorded-measurement: 100
- structure-smiles: "COc1cc(/C=C/c2cc(OC)c3c(C/C=C(\\C)CCC=C(C)C)c[nH]c3c2)cc2c1O[C@]1(C)CC[C@@H](O)C(C)(C)[C@H]1C2"
  unit: "µM"
  qualifying-sign: "="
  recorded-measurement: 66.1
- structure-smiles: "COc1cc(/C=C/c2cc(OC)c3c(CC=C(C)C)c[nH]c3c2)cc2c1O[C@]1(C)CC[C@@H](O)C(C)(C)[C@H]1C2"
  unit: "µM"
  qualifying-sign: "="
  recorded-measurement: 30.9
- structure-smiles: "COc1cc(/C=C/c2cc(O)c3ccn(C)c3c2)cc2c1O[C@]1(C)CC[C@@H](O)C(C)(C)[C@H]1C2"
  unit: "µM"
  qualifying-sign: ">"
  recorded-measurement: 100
- structure-smiles: "COc1cc(/C=C/c2cc(OC)c3cc[nH]c3c2)cc2c1O[C@]1(C)CC[C@@H](O)C(C)(C)[C@H]1C2"
  unit: "µM"
  qualifying-sign: ">"
  recorded-measurement: 100
- structure-smiles: "COc1cc(/C=C/c2cc(O)c3cc[nH]c3c2)cc2c1O[C@]1(C)CC[C@@H](O)C(C)(C)[C@H]1C2"
  unit: "µM"
  qualifying-sign: ">"
  recorded-measurement: 100
- structure-smiles: "COc1cc(/C=C/c2cc(O)c3c(c2)C[C@@H]2C(C)(C)[C@H](O)CC[C@@]2(C)O3)cc2[nH]cc(CC=C(C)C)c12"
  unit: "µM"
  qualifying-sign: "="
  recorded-measurement: 45.7
- structure-smiles: "CC1(C)[C@H](O)CC[C@@]2(C)Oc3c(O)cc(/C=C/c4cc(O)c5cc[nH]c5c4)cc3C[C@H]12"
  unit: "µM"
  qualifying-sign: ">"
  recorded-measurement: 100

* * *

We begin with a simple list: items and their reported GI50.
- experimental-protocol: Cytotoxicity against human Hs578T cells
- Assay type: functional
- assay-context: Hs-578T

- structure-smiles: "COc1cc(/C=C/c2cc(O)c3cc(CC=C(C)C)[nH]c3c2)cc2c1O[C@]1(C)CC[C@@H](O)C(C)(C)[C@H]1C2"
  GI50 (nM): 309
- structure-smiles: "COc1cc(/C=C/c2cc(OC)c3c(C/C=C(\\C)CCC=C(C)C)c[nH]c3c2)cc2c1O[C@]1(C)CC[C@@H](O)C(C)(C)[C@H]1C2"
  GI50 (nM): 219
- structure-smiles: "COc1cc(/C=C/c2cc(O)c3c(CC=C(C)C)c[nH]c3c2)cc2c1O[C@]1(C)CC[C@@H](O)C(C)(C)[C@H]1C2"
  GI50 (nM): 70.8
- structure-smiles: "COc1cc(/C=C/c2cc(OC)c3ccn(C)c3c2)cc2c1O[C@]1(C)CC[C@@H](O)C(C)(C)[C@H]1C2"
  GI50 (nM): 355
